src = the supplement of paper PMC10567573

B1: INTS3 (parent)
chain: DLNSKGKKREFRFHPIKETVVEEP

- Variants of: B1
- experimental-protocol: protein stability index of a GFP-peptide fusion (GPS, HEK-293T) (PSI 1-6); higher = more stable;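 note: lentivirally expressed fusions sorted by FACS into six bins by GFP to DsRed ratio, PSI derived from sequencing read proportions per bin multiplied by bin number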
- test-context: c terminus: a fixed tail appended
measured-parameter: protein stability index
The response must contain the number and no unit.

Q: What measured protein stability index goes with `DLNSWGKKREFRFHPIKETVVEEP` ?
Result: 2.32

Q: What measured protein stability index goes with `DLNSKGKKREFRFHPIKETVVEES` ?
Result: 2.22

Q: What measured protein stability index goes with `DLNSKGKKREFRFHPDKETVVEEP` ?
Result: 3.02

Q: What measured protein stability index goes with `DLNSKGKKREFRFHPIKLTVVEEP` ?
Result: 2.83

Q: What measured protein stability index goes with `DLNSKGKKREFRFHPIKETVVEEF` ?
Result: 2.81

Q: What measured protein stability index goes with `NLNSKGKKREFRFHPIKETVVEEP` ?
Result: 1.56

Q: What measured protein stability index goes with `DLNSKGKKREFRFHPIKETVCEEP` ?
Result: 2.49

Q: What measured protein stability index goes with `LLNSKGKKREFRFHPIKETVVEEP` ?
Result: 2.23

Q: What measured protein stability index goes with `DLNSKGKKREFDFHPIKETVVEEP` ?
Result: 4.25

Q: What measured protein stability index goes with `DLNSKGKKREFRFHPIKDTVVEEP` ?
Result: 2.68

Q: What measured protein stability index goes with `DLNSKNKKREFRFHPIKETVVEEP` ?
Result: 2.37

Q: What measured protein stability index goes with `DLVSKGKKREFRFHPIKETVVEEP` ?
Result: 1.53

Q: What measured protein stability index goes with `DLQSKGKKREFRFHPIKETVVEEP` ?
Result: 2.33

Q: What measured protein stability index goes with `DLNSKMKKREFRFHPIKETVVEEP` ?
Result: 2.4

Q: What measured protein stability index goes with `DLNSKGKKREFRDHPIKETVVEEP` ?
Result: 4.71

Q: What measured protein stability index goes with `DLNSKGKKREFRFHPIKETVVEHP` ?
Result: 1.99

Q: What measured protein stability index goes with `DLNSKGKKREFRFCPIKETVVEEP` ?
Result: 3.36

Q: What measured protein stability index goes with `ILNSKGKKREFRFHPIKETVVEEP` ?
Result: 1.28

Q: What measured protein stability index goes with `DLCSKGKKREFRFHPIKETVVEEP` ?
Result: 1.78

Q: What measured protein stability index goes with `DLNSKGKKREFRFHPIKCTVVEEP` ?
Result: 2.48

Q: What measured protein stability index goes with `DLNSKGTKREFRFHPIKETVVEEP` ?
Result: 2.79

Q: What measured protein stability index goes with `DLESKGKKREFRFHPIKETVVEEP` ?
Result: 2.9

Q: What measured protein stability index goes with `DLNSPGKKREFRFHPIKETVVEEP` ?
Result: 2.69

Q: What measured protein stability index goes with `DLNSKGKKREFRFHPIKETVVEVP` ?
Result: 2.25

Q: What measured protein stability index goes with `DLNSKGKKREFRFHPIKETVVECP` ?
Result: 3.71

Q: What measured protein stability index goes with `DLNSKGIKREFRFHPIKETVVEEP` ?
Result: 2.15

Q: What measured protein stability index goes with `DLNSKGKKREFRFHPIKEDVVEEP` ?
Result: 2.87

Q: What measured protein stability index goes with `DLNSKGEKREFRFHPIKETVVEEP` ?
Result: 3.37

Q: What measured protein stability index goes with `PLNSKGKKREFRFHPIKETVVEEP` ?
Result: 1.48

Q: What measured protein stability index goes with `DLNSKGDKREFRFHPIKETVVEEP` ?
Result: 3.35

Q: What measured protein stability index goes with `DLNSKGKKREFRFHPEKETVVEEP` ?
Result: 2.96

Q: What measured protein stability index goes with `DLNSKGKKWEFRFHPIKETVVEEP` ?
Result: 2.21

Q: What measured protein stability index goes with `DLNSKGKKRMFRFHPIKETVVEEP` ?
Result: 1.64

Q: What measured protein stability index goes with `DHNSKGKKREFRFHPIKETVVEEP` ?
Result: 2

Q: What measured protein stability index goes with `DLNSKGKKREFRFHPIKETVVSEP` ?
Result: 1.92

Q: What measured protein stability index goes with `ELNSKGKKREFRFHPIKETVVEEP` ?
Result: 2.43

Q: What measured protein stability index goes with `DLNSKGKKRGFRFHPIKETVVEEP` ?
Result: 2

Q: What measured protein stability index goes with `DLNGKGKKREFRFHPIKETVVEEP` ?
Result: 2.13

Q: What measured protein stability index goes with `DLNSKGKKREFMFHPIKETVVEEP` ?
Result: 4.12

Q: What measured protein stability index goes with `DLNSKGKKGEFRFHPIKETVVEEP` ?
Result: 2.41

Q: What measured protein stability index goes with `DLNSKGKKREFRFHPIKETVVHEP` ?
Result: 1.91

Q: What measured protein stability index goes with `DLNSKGKKREFRFTPIKETVVEEP` ?
Result: 3.7

Q: What measured protein stability index goes with `DLNSKGKKREFRFHPIKEHVVEEP` ?
Result: 2.42

Q: What measured protein stability index goes with `DLNSKGKKREFRFHPIKETVVEED` ?
Result: 2.4

Q: What measured protein stability index goes with `DLNSKGKKREFRFHPIKETWVEEP` ?
Result: 3.44

Q: What measured protein stability index goes with `DKNSKGKKREFRFHPIKETVVEEP` ?
Result: 2.09
